# target-system: UniProt:P25021
# Sequence (P25021 whole entry): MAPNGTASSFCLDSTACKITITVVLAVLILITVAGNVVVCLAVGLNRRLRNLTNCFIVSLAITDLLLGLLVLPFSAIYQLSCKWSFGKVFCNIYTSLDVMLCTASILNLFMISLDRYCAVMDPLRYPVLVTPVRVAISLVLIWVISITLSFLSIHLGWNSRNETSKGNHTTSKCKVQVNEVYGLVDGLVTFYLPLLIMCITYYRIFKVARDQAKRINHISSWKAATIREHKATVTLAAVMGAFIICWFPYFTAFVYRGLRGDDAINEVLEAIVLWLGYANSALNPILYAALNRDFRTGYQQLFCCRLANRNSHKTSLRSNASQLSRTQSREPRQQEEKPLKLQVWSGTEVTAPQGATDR
pIC50: −log10 of the molar value.
readout: pIC50

Exercise: Consider the molecule shown here: COc1cccc2c1O[C@@H](c1ccc(OCCCN3CCCC3)cc1)[C@H](C)S2(=O)=O What is its recorded pIC50?
Key: < 5.00
